Give inhibition for every item shown.
Molecular target: Cytosolic phospholipase A2 (Homo sapiens)
Assay: Inhibition of human group-4A cPLA2 at 0.091 mole fraction by mixed micellar assay

# molecule CCCCCCCCCCCCCCC(=O)C(=O)N[C@@H](CCCC)COCC(=O)O ; its inhibition = > 90%

# molecule CCCCCCCCCCCCCCC(=O)C(=O)N[C@H](C(=O)NCC(=O)OC(C)(C)C)C(C)C ; its inhibition = > 90%

# molecule CCCCCCCCCCCCCCC(=O)C(=O)NCCCC(=O)CO ; its inhibition = > 90%

# molecule CCCCCCCCCCCCCCC(=O)C(=O)N[C@H](C(=O)NCC(=O)O)C(C)C ; its inhibition = > 90%

# molecule CCCCCCCCCCCCCCC(=O)C(=O)N[C@@H](CCCC)C(=O)NCC(=O)O ; its inhibition = > 90%

# molecule CCCCCCCCCCCCCCC(=O)C(=O)NCCCC(=O)COCC ; its inhibition = > 90%

# molecule CCCCCCCCCCCCCCC(=O)C(=O)N[C@@H](CCCC)C(=O)NCC(=O)OC ; its inhibition = > 90%
